src = ChEMBL document CHEMBL1201862

Tested on: K562
Test: NCI tumour cell line growth inhibition, 48 h
The source made the active and inactive calls. No stated cut-off is given here; in the data, active = GI50 up to about 1.1 µM and inactive = higher.
Possible outcomes: 1 for active, -1 for inactive

COMPOUND: CCC1C(c2cccc(OC)c2O)c2cc3c(cc2OC1N1CCCC1)OCO3 (stereo not drawn)
TESTED_TARGET: K562
LABEL_CLASS: -1
--
COMPOUND: CCOC(=O)C1C/C(C)=C(/C)SCCCS1 (stereo not drawn)
TESTED_TARGET: K562
LABEL_CLASS: -1
--
COMPOUND: COc1cc2c(cc1C[C@H]1[C@@H]3C[C@H]4c5c(c6ccccc6n5C)C[C@@H]([C@@H]3CO[C@]1(C)OC(C)=O)N4C)c1c(n2C)C2C[C@H]3C(C(C)=O)=COC[C@H]3[C@H](C1)N2C
TESTED_TARGET: K562
LABEL_CLASS: -1
--
COMPOUND: OCC1OC(O[C@H]2CN3[C@H](O)[C@@H](O)[C@H](O)[C@H]3C2O)C(O)C(O)C1O (stereo partly drawn)
TESTED_TARGET: K562
LABEL_CLASS: -1
--
COMPOUND: O=C(CN(Cc1ccccc1)Cc1ccccc1)N1CCc2c([nH]c3ccccc23)C1c1cccnc1 (stereo not drawn)
TESTED_TARGET: K562
LABEL_CLASS: -1
--
COMPOUND: O=C1CC(c2cccc(F)c2)Nc2cc3c(cc21)OCO3 (stereo not drawn)
TESTED_TARGET: K562
LABEL_CLASS: 1
--
COMPOUND: C[C@@]1(O)C[C@@H](N2C(=O)O[C@@H](c3ccccc3)[C@H]2c2ccccc2)[C@@H]1COCc1ccccc1
TESTED_TARGET: K562
LABEL_CLASS: -1
--
COMPOUND: O=C1CC(Cl)c2c1csc2Br (stereo not drawn)
TESTED_TARGET: K562
LABEL_CLASS: -1
--
COMPOUND: Cc1cc2nc3c(C#N)c(-c4ccccc4)cc(Nc4cccc(C(F)(F)F)c4)n3c2cc1C
TESTED_TARGET: K562
LABEL_CLASS: 1
--
COMPOUND: COC(=O)C1(C(=O)OC)CC(=O)c2c(OC(=O)c3cccc(OC)c3C#N)ccc(OC(=O)c3cccc(OC)c3C#N)c2C1
TESTED_TARGET: K562
LABEL_CLASS: -1
--
COMPOUND: CCNc1nc(N)c(C(=O)c2cccs2)s1
TESTED_TARGET: K562
LABEL_CLASS: -1
--
COMPOUND: N#Cc1c(O)c2ccccc2[nH]c1=O
TESTED_TARGET: K562
LABEL_CLASS: -1
--
COMPOUND: NC(=S)NS(=O)(=O)c1ccc(Cl)cc1
TESTED_TARGET: K562
LABEL_CLASS: -1

----------
Measured GI50 of individual entries
Test system: PC-3
Experiment: NCI tumour cell line growth inhibition, 48 h
The source made the active and inactive calls. Rule as the data show it: active = GI50 up to about 1.1 µM and inactive = higher.

COMPOUND: CC/C(Cl)=N\OC(=O)Nc1ccc(C#N)cc1
GI50: 16.7 µM (inactive)

COMPOUND: CC(=O)CC1CCC(=O)CCC(=O)OC(CC(C)=O)CCC(=O)CCC(=O)O1 (stereo not given)
GI50: > 100 µM (inactive)

COMPOUND: O=C(O)Cn1ccc(=O)c2c([N+](=O)[O-])cccc21
GI50: > 100 µM (inactive)

COMPOUND: CCCCCCCCOC(=O)C12Oc3ccc(-c4ccc5c(c4O)C(=O)C4=C(O)CC(C)C(O)C4(C(=O)OCCCCCCCC)O5)c(O)c3C(=O)C1=C(O)CC(C)C2O (stereo not given)
GI50: 23.2 µM (inactive)

COMPOUND: CCOc1ccc(N2C(=O)NC3(c4ccccc4)N(C)C(=O)N(C)C23c2ccccc2)cc1 (stereo not given)
GI50: 41 µM (inactive)

COMPOUND: COc1ccc2nc(N/N=C/C(C)=N/Nc3cc(C)c4cc(OC)ccc4n3)cc(C)c2c1
GI50: 22.3 µM (inactive)

COMPOUND: Cn1c(N)c(/C=N/NC(=O)CC#N)c(=O)n(C)c1=O
GI50: > 100 µM (inactive)

COMPOUND: CC1C(OS(=O)(=O)c2ccc3nc(S)sc3c2)CC2C3(C)CCC2(C(C)C(=O)O)C(O)C13 (stereo not given)
GI50: 27.4 µM (inactive)

COMPOUND: c1ccc2c(c1)Cn1c-2nc2ccccc21
GI50: > 100 µM (inactive)

COMPOUND: O=[N+]([O-])c1cccc([N+](=O)[O-])c1Cl
GI50: 13.5 µM (inactive)
